Entry source: paper PMC6217055

- System: six solid tumour cell lines
- protocol-notes: CCK-8 cytotoxicity, summary over six cell lines
- Type: cell-based
- test-conditions: read-out: IC50 values in these cell lines
pIC50: −log10 of the molar value.
value-kind: pIC50

> print(dat)
                                   compound  meas.value
1  CCN1CCN(Cc2ccc(Nc3ncc(F)c(-c4cc(F)c5nc(C)n(C(C)C)c5c4)n3)nc2)CC1 [Abemaciclib]      < 6.00
